B1: APBB1IP (parent)
chain: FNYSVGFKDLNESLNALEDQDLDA

- Variants of: B1
- assay.summary: protein stability index of a GFP-peptide fusion (GPS, HEK-293T) (PSI 1-6); higher = more stable;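 also: lentivirally expressed fusions sorted by FACS into six bins by GFP to DsRed ratio, PSI derived from sequencing read proportions per bin multiplied by bin number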
- condition.set: c terminus: a fixed tail appended
I would appreciate it if you labelled entries yes (1) when protein stability index is 4 or higher, otherwise no (0).

As a guide, the following entries are already answered.
INSERT INTO measurements (residues, class_label) VALUES
  ('FVYSVGFKDLNESLNALEDQDLDA [N2V]', 'no (0)'),
  ('FNYSVGFKDLNESLNALCDQDLDA [E18C]', 'no (0)'),
  ('FNYSVGFKDLNESLNALEDQDLIA [D23I]', 'no (0)');

Problem: Confirm if protein stability index reported for the variant FNTSVGFKDLNESLNALEDQDLDA [Y3T] is 4 or above.
Solution: yes (1)

Problem: Confirm if protein stability index reported for the variant FNYSVGFKDLNESLNALEDQFLDA [D21F] is 4 or above.
Solution: no (0)

Problem: Confirm if protein stability index reported for the variant FNYSVGCKDLNESLNALEDQDLDA [F7C] is 4 or above.
Solution: yes (1)

Problem: Confirm if protein stability index reported for the variant FNYSKGFKDLNESLNALEDQDLDA [V5K] is 4 or above.
Solution: yes (1)

Data origin, for the record: the supplement of paper PMC10567573
